- Test system: SK-MEL-2 melanoma
- Assay remarks: NCI tumour cell line growth inhibition, 48 h; in the data active = GI50 below about 0.43 µM; inactive = the rest
Just give me one of these, please: T (active), F (inactive)

# Compound, Qualitative label
measured = [
    ("COc1ccccc1-c1cc(/C=C2\\C(=O)Nc3ncc(Br)cc32)cc(Br)c1O", "F"),
]

Q: What call does the record list for Cc1ccc(S(=O)(=O)Oc2ccc([N+](=O)[O-])cc2[N+](=O)[O-])cc1 ?
Result: F

Q: What call does the record list for NC(=NCCCC1(c2ccccc2)CCCC1)Nc1ccc(Cl)cc1 ?
Result: F

Q: What call does the record list for N=C(N)/N=C(\N)c1c(-c2cc(O)ccc2O)nc2sccn12 ?
Result: F

Q: What call does the record list for CCN1C(=O)N(CC)C2C1NN=c1s/c(=C\c3ccccc3F)c(=O)n12 (centres undefined) ?
Result: T

Q: What call does the record list for COC(=O)[C@@]1(Cc2ccccc2)[C@H]2c3cc(C(=O)N4CCCC4)n(Cc4ccc(OC)c(OC)c4)c3C[C@H]2CN1C(=O)c1ccccc1 ?
Result: F

Q: What call does the record list for C=C(C)[C@@H]1CC[C@]2(C(N)=O)CC[C@]3(C)[C@H](CC[C@@H]4[C@@]5(C)CC[C@H](O)C(C)(C)[C@@H]5CC[C@]43C)[C@@H]12 ?
Result: F

----------
- System: RXF-631 renal
- Assay remarks: NCI tumour cell line growth inhibition, 48 h
Property name: TGI (µM)
Kindly provide the numeric value in µM only, without the unit symbol.

Example entries and their recorded answers appear below.
# Structure as smiles, TGI [µM]
records = [
    ("Cc1ccc2[nH]c3c(C)c4c(c(C)c3c2c1)CN(C)C=C4", 8.75),
    ("CCN(CC)CC.CCOc1ccc(NC(=O)N=C=[N-])cc1.[CH-]1CCCCC1.[CH-]1CCCCC1.[CH-]1CCCCC1.[Cl-].[Sn+4]", 0.0648),
]

In the following, a different compound is considered.
Summary for this compound, CCOC(=O)Cc1nc2ccccc2s1 : TGI is 33.8

----------
The entries below are paired with their reported TGI.
- System: BT-549 breast
- Assay remarks: NCI tumour cell line growth inhibition, 48 h

Example entries and their recorded answers appear below.
# Compound, Tested system, Property name, Result
rows = [
    ("COc1ccc(C2=Nn3c(nc4sc(C)c(C)c4c3=O)SC2)cc1", "BT-549 breast", "TGI", "> 100 µM"),
    ("COc1ccc(CC2c3cc(OC)c(OC)c(OC)c3CC[N+]2(C)C)cc1Oc1ccc(CC2c3cc4c(c(OC)c3CC[N+]2(C)C)OCO4)cc1 (centres undefined)", "BT-549 breast", "TGI", "> 100 µM"),
    ("COC(=O)C(Cc1cnc[nH]1)NC(=O)CNC(=O)CCCn1c(=O)c2c3ccccc3n(C)c2n2nnc(-c3ccccc3)c12 (centres undefined)", "BT-549 breast", "TGI", "> 100 µM"),
]

In the following, a different compound is considered.
Summary for this compound, Cc1ccc(S(=O)(=O)Oc2ccc([N+](=O)[O-])cc2[N+](=O)[O-])cc1 : TGI is 18 µM

----------
- System: A498 renal
- Assay remarks: NCI tumour cell line growth inhibition, 48 h
The entries below are paired with their reported TGI.
Kindly provide the numeric value in µM only, without the unit symbol.

# Structure as smiles, TGI / µM
records = [
    ("COc1ccc(/C=C/C(=O)C(C)(C)CN2CCCCC2)cc1", 38.5),
]

Summary for this molecule, COC(=O)[C@H]1[C@@H](O)[C@@]2(O)c3c(OC)cc(O[C@@H]4O[C@@H]([C@H](O)CO)CO[C@H]4OC)cc3O[C@@]2(c2ccc(OC)cc2)[C@@H]1c1ccccc1 : TGI is 0.0141

Summary for this molecule, CC(C)/C(Cl)=N/OC(=O)Nc1cccc(C(F)(F)F)c1 : TGI is 37.1

----------
- System: UACC-62 melanoma
- Assay remarks: NCI tumour cell line growth inhibition, 48 h
The entries below are paired with their reported TGI.

Summary for this molecule, COc1cc(-c2nc(NC(C)=O)sc2-c2ccnc(NCCNS(=O)(=O)c3ccccc3)n2)ccc1Cl : TGI is > 100 µM

Summary for this molecule, CC(C)CC1C(=O)N2CCC[C@H]2C2(O)O[C@](NC(=O)C3C=C4c5cccc6[nH]c(Br)c(c56)C[C@H]4N(C)C3)(C(C)C)C(=O)N12 (some centres undefined) : TGI is > 100 µM

----------
The entries below are paired with their reported TGI.
- Tested on: SK-MEL-2 melanoma
- Assay remarks: NCI tumour cell line growth inhibition, 48 h

I looked up CCOC(=O)/C(C=Nc1c(C)n(C)n(-c2ccccc2)c1=O)=C(/O)c1ccccc1 and its TGI for SK-MEL-2 melanoma was > 100 µM

I looked up O=C(NCCc1ccccc1)[C@H]1CCCC[C@@H]1CCO and its TGI for SK-MEL-2 melanoma was > 100 µM

I looked up Cn1c2c(c3ccccc31)CCN1OCC=C[C@@H](C(=O)O)[C@@H]21 and its TGI for SK-MEL-2 melanoma was > 100 µM

----------
The entries below are paired with their reported TGI.
- Test system: HOP-92 NSCLC
- Assay remarks: NCI tumour cell line growth inhibition, 48 h
Where a SMILES comes first, the peptide text is derived from it. Bridges are numbered along the chain shown (N, C = ends). [ ]: non-standard residue; d: D form. The star is where a group is joined. Cbz = O=C(OCc1ccccc1)*; Dab = NCC[CH](N)C(=O)O; Bn = c1ccc(C*)cc1

Example entries and their recorded answers appear below.
# Molecule, Result
rows = [
    ("CC(C)CC1C(=O)N2CCC[C@H]2C2(O)O[C@](NC(=O)C3C=C4c5cccc6[nH]c(Br)c(c56)C[C@H]4N(C)C3)(C(C)C)C(=O)N12 (stereo partly drawn)", "> 100 µM"),
    ("C[N+](C)(C)CC(=O)N/N=C(\\CCC(=O)NCCc1ccccc1)CC(=O)c1ccccc1", "> 100 µM"),
    ("O=C1/C=C/[C@@H](O)[C@@H]2C[C@@H](O)C[C@H]2/C=C/CCC[C@H](CCc2ccc(C(F)(F)F)cc2)O1", "0.89 µM"),
    ("CC(C)CC1NC(=O)C(Cc2ccccc2)NC(=O)C(Cc2ccccc2)NC(=O)C(NC(=O)C(Cc2ccc(OCc3ccccc3)cc2)NC(=O)OCc2ccccc2)CCNC1=O (stereo not drawn) (Cbz-Y(Bn)[Dab]FFL; lactam 2-C; configuration not given here)", "> 100 µM"),
    ("O=C(NO)c1ccc(OCc2cccc(Cl)c2)cc1", "51.4 µM"),
    ("CO/[N+]([O-])=C\\C(=O)N/C=C/C(=O)O", "> 100 µM"),
    ("O=C(Nc1ccc(Cl)cc1)NS(=O)(=O)c1coc2ccccc2c1=O", "> 10 µM"),
]

In the following, a different molecule is considered.
Summary for this molecule, CC(=O)NC(CCCCN(Cc1ccccc1)C(=O)NCCCl)C(=O)NCc1ccccc1 (stereo not drawn) : TGI is > 100 µM

----------
- System: U251 CNS
- Assay remarks: NCI tumour cell line growth inhibition, 48 h
The entries below are paired with their reported TGI.
Kindly provide the numeric value in µM only, without the unit symbol.

Example entries and their recorded answers appear below.
# Molecule, Property name, Result number
rows = [
    ("Cc1ccc(-c2cc(-c3ccc(Cl)cc3)nc(/N=C3\\C(=O)N(CN4CCOCC4)c4ccccc43)n2)cc1", "TGI", 77),
    ("O=c1cc(-c2ccccc2)oc2cc(OCC(O)COc3ccc4c(=O)cc(-c5ccccc5)oc4c3)ccc12", "TGI", 63.1),
    ("CC(N)C(=O)OCN1C(=O)C2C3C=CC(C2C1=O)C1C2C(=O)N(COC(=O)C(C)N)C(=O)C2C31 (stereo not drawn)", "TGI", 50.3),
]

Summary for this molecule, CC(C)CCSC1=CC(=O)c2ccccc2C1=O : TGI is 21.5

Summary for this molecule, O=C1OC2C(O)COC2(O)C1(O)C(C[N+](=O)[O-])c1ccc(Cl)cc1 (stereo not drawn) : TGI is 25.5

Summary for this molecule, CCCCC(C(=O)N/N=C/c1ccc([N+](=O)[O-])o1)C(=O)N/N=C/c1ccc([N+](=O)[O-])o1 : TGI is 10.3

Summary for this molecule, NC1OC(COC(=O)c2ccccc2)C(O)C(OC(=O)c2ccccc2)C1OC(=O)c1ccccc1 (stereo not drawn) : TGI is 34.2

Summary for this molecule, CC(C)/C(Cl)=N/OC(=O)Nc1cccc(C(F)(F)F)c1 : TGI is 31.3

----------
- Tested on: MOLT-4 leukemia
- Assay remarks: NCI tumour cell line growth inhibition, 48 h
The entries below are paired with their reported TGI.

Example entries and their recorded answers appear below.
# Compound, Property name, Result
measured = [
    ("CNC(=O)c1c(NC(=O)c2ccc(C(F)(F)F)cc2)sc2c1CCC(=O)C2", "TGI", "4.01 µM"),
    ("COc1cc(-c2nc(NC(C)=O)sc2-c2ccnc(NCCNS(=O)(=O)c3ccccc3)n2)ccc1Cl", "TGI", "> 100 µM"),
    ("O=C(O)C1=C(C(=O)Nc2ccccc2)C2C=CC1C2 (stereo unspecified)", "TGI", "> 100 µM"),
    ("CC1(C)Oc2ccc3c(=O)c(-c4ccccc4)c(-c4ccccc4)oc3c2C1C(=O)O (stereo unspecified)", "TGI", "> 100 µM"),
    ("CCc1n[nH]c(=O)n1N1C(=O)CCC1=O", "TGI", "> 100 µM"),
    ("C=C(C)[C@@H]1CC[C@]2(C(N)=O)CC[C@]3(C)[C@H](CC[C@@H]4[C@@]5(C)CC[C@H](O)C(C)(C)[C@@H]5CC[C@]43C)[C@@H]12", "TGI", "18.3 µM"),
    ("O=C(NCCc1ccccc1)[C@H]1CCCC[C@@H]1CCO", "TGI", "> 100 µM"),
    ("CC1=CC=C2c3ccccc3C=CN2C(=O)C1", "TGI", "> 100 µM"),
]

Summary for this compound, Cc1ccc(/C=N/Nc2nc3ccccc3s2)s1 : TGI is > 100 µM

Summary for this compound, CC(C)CC1C(=O)N2CCC[C@H]2C2(O)O[C@](NC(=O)C3C=C4c5cccc6[nH]c(Br)c(c56)C[C@H]4N(C)C3)(C(C)C)C(=O)N12 (stereo partly specified) : TGI is > 100 µM

Summary for this compound, c1ccc(CSc2ccccc2CN2CCN(Cc3ccccc3SCc3ccccc3)CCN(Cc3ccccc3SCc3ccccc3)CC2)cc1 : TGI is 6.26 µM

Summary for this compound, CCCCCCCCCCCCNC(=O)[C@H]1CSC(c2cc3ccccc3s2)N1 (stereo partly specified) : TGI is 1.37 µM

Summary for this compound, Cc1nc2c(O)cc3c4c(=O)n(C)c(=O)n(C)c4n(Cc4ccccc4)c3c2nc1C : TGI is 70.1 µM

Summary for this compound, COc1cc(OC)c2ssc3c(OC)cc(OC)c4ssc1c2-c43 : TGI is > 100 µM

Summary for this compound, CC(/C=C/C(=O)c1sc(-n2nc(-c3ccccc3)cc2-c2ccccc2)nc1C)=C\c1ccccc1 : TGI is > 100 µM

Summary for this compound, Cc1c(-c2ccccc2)[nH]c2ccc(Cl)cc2c1=O : TGI is > 100 µM

Summary for this compound, Cc1nnc(N=Nc2c(O)[nH]c3c(Cl)cc(Cl)cc23)n1N : TGI is > 100 µM

Summary for this compound, Cc1ccc2c3c(cnc2n1)C(=O)OCCN3C : TGI is > 100 µM

Summary for this compound, C=CC(CBr)CCC(Br)C(C)(C)Br (stereo unspecified) : TGI is > 10 µM

Summary for this compound, O=C1CCCC2=C1CC1=C(CCCC1=O)N2c1ccccc1C(=O)O : TGI is > 100 µM

Summary for this compound, NC(=NCCCC1(c2ccccc2)CCCC1)Nc1ccc(Cl)cc1 : TGI is 4.11 µM

These data points were gathered from PubChem BioAssay (NCI).
